# system.name: non-inactivating Shaker channel from D. melanogaster (Drosophila melanogaster, UniProt P08510, DEL6-46)
# Sequence (P08510 other isoform, or with tags, fused parts or gaps DEL6-46): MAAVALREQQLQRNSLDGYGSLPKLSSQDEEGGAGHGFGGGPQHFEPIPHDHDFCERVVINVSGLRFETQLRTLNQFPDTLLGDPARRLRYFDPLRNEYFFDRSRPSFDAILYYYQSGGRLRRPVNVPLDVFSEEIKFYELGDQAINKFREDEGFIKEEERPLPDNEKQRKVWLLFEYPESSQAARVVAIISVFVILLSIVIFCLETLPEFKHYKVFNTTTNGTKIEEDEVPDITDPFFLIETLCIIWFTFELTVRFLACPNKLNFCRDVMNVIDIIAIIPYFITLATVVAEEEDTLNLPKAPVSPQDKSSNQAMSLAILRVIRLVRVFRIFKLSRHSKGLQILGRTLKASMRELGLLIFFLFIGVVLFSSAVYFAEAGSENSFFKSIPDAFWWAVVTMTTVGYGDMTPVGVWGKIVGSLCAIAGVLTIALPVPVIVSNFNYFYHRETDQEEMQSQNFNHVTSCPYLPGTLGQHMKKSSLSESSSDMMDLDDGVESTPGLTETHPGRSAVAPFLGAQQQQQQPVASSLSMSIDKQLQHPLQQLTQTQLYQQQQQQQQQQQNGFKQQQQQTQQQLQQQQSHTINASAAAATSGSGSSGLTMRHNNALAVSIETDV
# protocol: cell-based
# settings: relative K^+ current at +20 mV, Hill equation fit; read-out: Half-maximal inhibitory concentration (IC50)
Hi there, I'd appreciate the recorded pIC50 for every entry that follows.
One number for each entry, as −log10 of the molar value.

- Nc1ccncc1CF: 2.13

Lab note: next compound to report on.
INPUT: Consider the compound Nc1ccncc1F and give its measured pIC50.
OUTPUT: 3.60

---

# protocol: Parallel artificial membrane permeability assay (PAMPA)
# settings: PAMPA
metric.name: Papp (×10⁻⁶ cm/s)
Give bare numbers, in ×10⁻⁶ cm/s.

* Nc1ccncc1 [4-AP, 4-aminopyridine] | 0.236

Lab note: next compound to report on.
INPUT: Consider the compound Nc1ccncc1F [3-F-4-AP, 3-fluoro-4-aminopyridine] and give its measured Papp.
OUTPUT: 1.56

---

# system.name: non-inactivating Shaker channel from D. melanogaster (Drosophila melanogaster, UniProt P08510, DEL6-46)
# protocol: cell-based
metric.name: IC50 (mM)
Numbers only, in mM.

INPUT: Consider the compound Nc1ccncc1CO [3-HOMe-4-AP, 3-hydroxymethyl-4-aminopyridine, reference compound] and give its measured IC50.
OUTPUT: 4.38

---

# protocol: in vitro
# settings: mouse, liver microsomes
metric.name: half-life (min)
Answers are plain numbers, in min.

INPUT: Consider the compound Nc1ccncc1 and give its measured half-life.
OUTPUT: 53

---

# protocol: Partition coefficient octanol-water (logD)
# Assay type: physicochemical
# settings: pH 7.4, pH 7.4, n = 3; read-out: logD: experimental partition coefficient octanol:water
metric.name: logD
Give bare numbers.

INPUT: Consider the compound Nc1ccncc1F and give its measured logD.
OUTPUT: 0.63
